target-or-system: human Nurr1 (hinge region and ligand binding domain) (Homo sapiens)
Construct: expressed in transfected cells; host or cells: HEK293T
assay-details: Gal4-Nurr1 hybrid reporter gene assay
Format: cell-based
condition-description: Gal4-Nurr1 hybrid reporter, HEK293T; mean ± SD, n ≥ 3
quantity-name: EC50(Nurr1)

Cc1nc2cccc(Cl)c2[nH]1
inactive (100 µM)
Nc1c(-c2ccccc2Cl)nc2c(Cl)cccn12
inactive (100 µM)
Cc1nc2cc(Cl)ccn2c1N
inactive (100 µM)

###

target-or-system: Nurr1-RXR heterodimer (DR5) (Homo sapiens)
Construct: The full-length human nuclear receptor Nurr1 (pcDNA3.1-hNurr1-NE; Addgene plasmid #102363); host or cells: HEK293T
Sequence (P43354 whole entry): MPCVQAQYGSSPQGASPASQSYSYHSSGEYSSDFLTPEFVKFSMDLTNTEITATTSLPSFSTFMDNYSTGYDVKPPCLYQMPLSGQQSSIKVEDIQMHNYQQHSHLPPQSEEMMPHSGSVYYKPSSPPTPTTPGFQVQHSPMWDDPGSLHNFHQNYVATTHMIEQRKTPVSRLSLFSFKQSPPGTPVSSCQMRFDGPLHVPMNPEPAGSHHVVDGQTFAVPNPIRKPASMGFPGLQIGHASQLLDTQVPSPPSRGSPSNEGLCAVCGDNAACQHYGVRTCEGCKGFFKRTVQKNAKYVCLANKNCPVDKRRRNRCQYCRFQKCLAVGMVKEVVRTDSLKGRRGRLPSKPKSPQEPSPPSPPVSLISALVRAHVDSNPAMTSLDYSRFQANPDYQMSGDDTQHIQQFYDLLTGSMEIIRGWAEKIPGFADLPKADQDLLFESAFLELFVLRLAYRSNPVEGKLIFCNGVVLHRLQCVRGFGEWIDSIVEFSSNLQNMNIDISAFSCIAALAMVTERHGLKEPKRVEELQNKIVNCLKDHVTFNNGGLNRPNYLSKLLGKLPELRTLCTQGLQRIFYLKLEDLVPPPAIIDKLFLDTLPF
Sequence (P19793 whole entry partner): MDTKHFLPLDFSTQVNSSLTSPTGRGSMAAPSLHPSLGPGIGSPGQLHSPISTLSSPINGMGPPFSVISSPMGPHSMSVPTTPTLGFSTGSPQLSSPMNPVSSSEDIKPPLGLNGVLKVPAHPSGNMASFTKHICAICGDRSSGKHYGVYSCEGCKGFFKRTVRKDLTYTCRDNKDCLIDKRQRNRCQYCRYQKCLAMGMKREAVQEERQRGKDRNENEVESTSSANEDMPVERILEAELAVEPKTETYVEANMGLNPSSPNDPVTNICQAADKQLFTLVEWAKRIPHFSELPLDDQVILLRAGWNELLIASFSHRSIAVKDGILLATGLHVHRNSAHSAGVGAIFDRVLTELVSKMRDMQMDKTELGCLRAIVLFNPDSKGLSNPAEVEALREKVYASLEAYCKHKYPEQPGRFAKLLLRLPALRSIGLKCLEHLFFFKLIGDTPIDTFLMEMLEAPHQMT
assay-details: Full-length Nurr1 reporter gene assay (DR5)
Format: cell-based
condition-description: EC50(DR5) [+0.1 µM BEX], Nurr1-RXR heterodimer, in presence of 0.1 µM bexarotene
quantity-name: EC50 (nM)
// note: answer is a bare numeric in nM

Lookup: Read the entry Cc1nc2c(Cl)cccn2c1NC(=O)c1ccc(-c2ccc(N(C)C)cc2)o1 and write its reported EC50.
Found: 32

###

target-or-system: NOR-1 (Homo sapiens, UniProt Q92570)
Construct: chimeric receptors composed of the Gal4-DBD and the hinge region and LBD
Sequence (Q92570 394-623 limits assumed): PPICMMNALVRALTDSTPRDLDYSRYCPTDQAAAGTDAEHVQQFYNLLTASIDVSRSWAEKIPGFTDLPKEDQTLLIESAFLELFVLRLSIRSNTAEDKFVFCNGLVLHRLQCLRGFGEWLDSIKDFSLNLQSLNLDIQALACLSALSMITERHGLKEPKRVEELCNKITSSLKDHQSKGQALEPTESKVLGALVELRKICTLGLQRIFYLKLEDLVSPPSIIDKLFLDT
assay-details: Gal4-NOR-1 hybrid reporter gene assay
condition-description: HEK293T
quantity-name: pEC50
Keep in mind that pEC50 stands for -log10 of concentration in molar terms.

Lookup: Read the entry Cc1nc2c(Cl)cccn2c1NC(=O)c1ccc(-c2ccc(N(C)C)cc2)o1 [Compound 36] and write its reported pEC50.
Found: 6.96

###

target-or-system: human Nurr1 (hinge region and ligand binding domain) (Homo sapiens, UniProt P43354)
Construct: expressed in transfected cells; host or cells: HEK293T
assay-details: Gal4-Nurr1 hybrid reporter gene assay
Type: cell-based
condition-description: Gal4-Nurr1 hybrid reporter gene assay, HEK293T
quantity-name: highest non-toxic concentration

Cc1nc2c(Cl)cccn2c1NC(=O)c1ccc(-c2ccccc2)[nH]1
inactive (10 µM^b)
Cc1nc2c(Cl)cccn2c1NC(=O)c1ccc(-c2ccccc2)cc1
inactive (10 µM^b)

###

assay-details: Aqueous solubility
Assay type: physicochemical
condition-description: water, 25 °C, read-out: aq. solubility
Method: The mixture was agitated in a VWR Thermal Shake lite (VWR International GmbH, Darmstadt, Germany) for 24 h at 600 rpm and a constant temperature of 25 °C. The supersaturated mixtures were subsequently centrifuged at 23.300 rpm for 15 min (25 °C). Part of the supernatant was taken off for quantification by UV absorbance at 312 nm with external calibration. […] Absorbance was measured with a Tecan Spark luminometer (Tecan Deutschland GmbH, Crailsheim, Germany). […]
Give measured solubility at 24 h for each item. Keep answers brief.
// note: answer is a bare numeric in µg/mL

Lookup: Read the entry Cc1nc2c(Cl)cccn2c1NC(=O)c1ccc(-c2ccc(N(C)C)cc2)o1 and write its reported solubility at 24 h.
Found: 6.8

Lookup: Read the entry Cc1nc2c(Cl)cccn2c1NC(=O)c1ccc(-c2ccccc2)[nH]1 and write its reported solubility at 24 h.
Found: 4.1

###

target-or-system: human Nurr1 (hinge region and ligand binding domain) (Homo sapiens, UniProt P43354)
Construct: expressed in transfected cells; host or cells: HEK293T
assay-details: Gal4-Nurr1 hybrid reporter gene assay
Assay type: cell-based
condition-description: Gal4-Nurr1 hybrid reporter, HEK293T; mean ± SD, n ≥ 3; read-out: EC50(Nurr1)
quantity-name: log10 of EC50 (log10 of the value in µM)
Plainly stated, the numbers are log10 of EC50 given in µM.

Lookup: Read the entry Cc1nc2c(Cl)cccn2c1N and write its reported log10 of EC50.
Found: 0.85

Lookup: Read the entry Cc1ccc(-c2ccc(C(=O)Nc3c(C)nc4c(Cl)cccn34)o2)cc1 and write its reported log10 of EC50.
Found: -0.89

Lookup: Read the entry Cc1nc2c(Cl)cccn2c1NC(=O)c1ccc(-c2ccc(OC(F)(F)F)cc2)o1 and write its reported log10 of EC50.
Found: -0.10

Lookup: Read the entry Cc1nc2c(Cl)cccn2c1NC(=O)c1ccc(-c2ccccc2)o1 and write its reported log10 of EC50.
Found: 0.60

Lookup: Read the entry COc1ccc(-c2ccc(C(=O)Nc3c(C)nc4c(Cl)cccn34)o2)cc1 and write its reported log10 of EC50.
Found: -0.80

Lookup: Read the entry Nc1c(-c2cccc(Cl)c2)nc2c(Cl)cccn12 and write its reported log10 of EC50.
Found: 0.95

Lookup: Read the entry Cc1nc2c(Cl)cccn2c1NC(=O)c1ccc(-c2ccc(C(F)(F)F)cc2)o1 and write its reported log10 of EC50.
Found: 0.04

Lookup: Read the entry Cc1ccc(-c2nc3c(Cl)cccn3c2N)cc1 and write its reported log10 of EC50.
Found: 1.08

Lookup: Read the entry Nc1c(-c2ccccc2)nc2c(Cl)cccn12 and write its reported log10 of EC50.
Found: 0.60
